Tested System: HLA-B*40:01
Experimental Protocol: HLA binding; serotype 3
Assay Setup: chains peptide; modification not given
Property Label: IC50 (nM)
Please respond with the number in nM and leave the unit unwritten.

Give its IC50 value. Item: RQWFFDLPL […, serotype 3]
51
